experiment: amyloid nucleation score (Sup35N fusion, yeast selection) (log enrichment); library NNK3; higher = more nucleation; inactive = no reads after selection;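 further: zero at mode of non-aggregating sequences after 7 days selection at 30°C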
measured attribute: amyloid nucleation score

>>> observed_value("DCGATSLKTMASGLRMKRTS")
"inactive"
>>> observed_value("YWNLIWWAKQWDVFTGEEAL")
"inactive"
>>> observed_value("RHRFSTSGRYFVSIRLVSSF")
"inactive"
>>> observed_value("CIVRIVQST")
"inactive"
>>> observed_value("VTAFCWGLQRIVGIECSMLE")
"inactive"
>>> observed_value("GSALCHCLCNMEVMSYFVAF")
"inactive"
>>> observed_value("RWVNWLLYDKV")
"inactive"
>>> observed_value("DVLGCPNMEVCWSGFLSQNY")
"inactive"
>>> observed_value("IHCSDVGALRMYVPSTGPFS")
-0.213
>>> observed_value("LFILFSNGYTVGYNSDNRSF")
0.601
>>> observed_value("DLTMVQLMIFMLIIIFFNLL")
"inactive"
>>> observed_value("KFGVLRLVFSTLVSTLSRMV")
"inactive"
>>> observed_value("GLSHESTYKEEFESSATSGV")
"inactive"
>>> observed_value("KANFNVSVGKSVHATCLLTL")
"inactive"
>>> observed_value("CVRFPANLSFGSDRKAKLS")
"inactive"
>>> observed_value("MNWLSTTGECSILDISQ")
"inactive"
>>> observed_value("NYYLGETLA")
"inactive"
>>> observed_value("QTNIWYSGPIGSYHC")
"inactive"
>>> observed_value("FANQPGVNYRFTPPSCCFLT")
"inactive"
>>> observed_value("EISTVLNLHVRRIAGRFVMK")
"inactive"
>>> observed_value("GIVTLSA")
"inactive"
>>> observed_value("EFAEMHTAVLVERISSKVII")
"inactive"
>>> observed_value("SYYVNVRYWSITCPIWGLSD")
2.29
>>> observed_value("NMTVGHILFLMMTCAMYVNN")
"inactive"
>>> observed_value("YEMENDVS")
"inactive"
>>> observed_value("ISAGNTRSTYRLGSWDTSRE")
"inactive"
>>> observed_value("IFACVLHVVTW")
"inactive"
>>> observed_value("DFIRRVHYLKLSVWDVMTMR")
"inactive"
>>> observed_value("RVFNIEYMLECAFFRTIRD")
"inactive"
>>> observed_value("RSFRSKPKYLLTSDTCWSLT")
"inactive"
>>> observed_value("SYSSDWVLLGGMFFAKY")
0.164
>>> observed_value("SSFNIPMPSNYPKMIDLLFT")
"inactive"
>>> observed_value("YSKSLCVFKSICIELDF")
2.08
>>> observed_value("LELRYCLFADPMI")
"inactive"
>>> observed_value("AVMYSCQYRDKWVEVAMVTS")
"inactive"
>>> observed_value("CEMVCSTVIPIEVTSWLVMV")
"inactive"
>>> observed_value("GRNKSLYGIGLVRYVMLVSE")
"inactive"
>>> observed_value("TALWYSYFSTKNDMSLQFAP")
-0.673
>>> observed_value("LNHRIWLTLFGSASRLVKFD")
"inactive"
>>> observed_value("TVTGIMSKYANTSFRN")
"inactive"
>>> observed_value("GRLIPREGT")
"inactive"
>>> observed_value("FFFRLDCRLYS")
"inactive"
>>> observed_value("TIVYSLT")
"inactive"
>>> observed_value("KSGPYAVRLSEISWCDVRAG")
0.153
>>> observed_value("MNWGYILLYVWDVSKNRYGF")
"inactive"
>>> observed_value("EGRDQDNIPLMNTTGMCFGA")
"inactive"
>>> observed_value("SFTRCWLNKREMKMYTFSAR")
"inactive"
>>> observed_value("LPKCQLLLRRCRV")
"inactive"
>>> observed_value("YSFWIVFMRY")
"inactive"
>>> observed_value("KIFYYTWYSLSYTIQLYGLQ")
"inactive"
>>> observed_value("ILYSSYS")
"inactive"
>>> observed_value("WRYVFLVC")
"inactive"
>>> observed_value("IDLVLFSTCVNALVVESFGG")
"inactive"
>>> observed_value("WPLRGRSMLQWLSCHIQWAG")
"inactive"
>>> observed_value("HYGEFHKTNCARYRYFI")
"inactive"
>>> observed_value("TSNFCPFTVQN")
-0.477
>>> observed_value("CKSIPWVFYWFLLLYGYL")
"inactive"
>>> observed_value("IEGVGCIFRDLGDFLRGPWG")
"inactive"
>>> observed_value("NLLVLTDSVYIPLSHPYPNR")
0.493
>>> observed_value("TGRVLGYGLL")
"inactive"
>>> observed_value("SRSLWTLNIVFRHDCYTGKL")
-0.05
>>> observed_value("HCKRYNVERKNFCDLHNQRY")
"inactive"
>>> observed_value("REVRNWRERVCQMRVLVVMC")
"inactive"
>>> observed_value("QCLQALNMKIVFDHVRFRVR")
"inactive"
>>> observed_value("VSLVWDMHWHSYRVSSELCR")
"inactive"
>>> observed_value("WIVFMGDASCLSLLTWELFC")
1.25

====

experiment: amyloid nucleation score (Sup35N fusion, yeast selection) (log enrichment); library NNK2; higher = more nucleation; inactive = no reads after selection
measured attribute: amyloid nucleation score

>>> observed_value("GGTSLRNTLGICLNYLQS")
"inactive"
>>> observed_value("SVVGQKVGGR")
0.487
>>> observed_value("CLGRLMVYSAYYVHLYGVTI")
-1.29
>>> observed_value("RGVDYVLSCL")
-1.21
>>> observed_value("KMKFKKENFC")
-0.858
>>> observed_value("QLGLLFFGTVLM")
1.87
>>> observed_value("WRVSSSI")
-0.706
>>> observed_value("FIFLNNIHTYIYYVR")
6.29
>>> observed_value("CGWGYLTCPSRTVVWARAGV")
1.35
>>> observed_value("RIEDFF")
1.19
>>> observed_value("SRLGVFMYANVLWGKQSRND")
6.27
>>> observed_value("IVRVIMYLCGNLLVNRWGNA")
0.082
>>> observed_value("LSSVILVLNNSVAFYILDAG")
3.83
>>> observed_value("RGMWRCHNG")
1.49
>>> observed_value("LVRGMDFHLNLDEKFFSATL")
-1.05
>>> observed_value("VRNGMANKGNDGRAAWEVNG")
1.25
>>> observed_value("RPAFTNLRQCQRAYPVGGRC")
0.195
>>> observed_value("YMTVSRVHISRVCCVYTLNV")
5.44
>>> observed_value("TIWVATLDFPNSYMSSALFV")
4.27
>>> observed_value("LPGQGIWWHICIEG")
1.24
>>> observed_value("MSLILRSPLKTWLPLAHTQG")
0.187
>>> observed_value("SLLRIRQYVVWRLG")
0.079
>>> observed_value("RRPCLS")
-1.09
>>> observed_value("YGVYVRCYLDGSLWWNFTAW")
"inactive"
>>> observed_value("STSRCMRLHWGTFNYCSNIF")
0.721
>>> observed_value("ALLYYSMCCRFMRPTSAYHV")
0.246
>>> observed_value("FLSYFCIIFSTNLKLSSK")
2.1
>>> observed_value("YCRMYSRNVDGVWHTISKLD")
0.108
>>> observed_value("NADQLLIGELQLTLGLWPIR")
1.14
>>> observed_value("YDVSFTFLWW")
0.242
>>> observed_value("AFPNNFTRLYALEVLFGFRN")
2.1
>>> observed_value("FAGWIYGCTDRMVCLCSGGF")
"inactive"
>>> observed_value("QKGHSRLQPWSLSPYVYRPL")
0.556
>>> observed_value("RLSLGLYINALRC")
1.01
>>> observed_value("IVCWTMVVDLIVDQMLTAYR")
1.03
>>> observed_value("YWNDSSRYGQVGVEYC")
0.49
>>> observed_value("WLLVDYAASCRGKWCHEMHG")
0.284
>>> observed_value("IKKGRWAYGPSLVCKNAMRE")
0.799
>>> observed_value("SQRRKQLEYHAVLWY")
-0.289
>>> observed_value("FGKFFCCWSSLRNEKCYFAM")
"inactive"
>>> observed_value("NTLVMRWCRGCQWKEQLASN")
1.1
>>> observed_value("LMCTSAKSADMSH")
0.992
>>> observed_value("IVACGCVSVSRRSLP")
3.09
>>> observed_value("PQAVLKGTQGHNLTKNLTWA")
-0.774
>>> observed_value("CLTYYTCLTWKMPCGIRHQG")
0.428
>>> observed_value("QCMTKKLEISQY")
-0.492
>>> observed_value("STRDQQWMMRNRG")
-0.381
>>> observed_value("IRVGICAVDGPACKRLYSCM")
-0.176
>>> observed_value("MSLWRVCCFSWPKKVYSNFR")
1.2
>>> observed_value("GLMAWR")
0.154
>>> observed_value("GVCPTVVCPHYIDVRML")
0.16
>>> observed_value("EVRIDHGHVIA")
0.293
>>> observed_value("FTKSKWLWSRAAFLRIDRW")
0.799
>>> observed_value("CLSMFTVWSLAFASLSVTMR")
-0.034
>>> observed_value("TFVLSNC")
-0.356
>>> observed_value("VSNPSSQMNC")
0.042
>>> observed_value("GLLTGITILIVVDSCLGVCF")
3.99
>>> observed_value("SWCCTSIYHVRLW")
9.43
>>> observed_value("MCFFMAREEASRGAKGLAER")
1.66
>>> observed_value("LKNKSPCSR")
0.039
>>> observed_value("ACSYANLLVTLLNSPEMPVE")
0.306
>>> observed_value("WTCVEVHAVYCFGSVDELVL")
8.56
>>> observed_value("LMPDSCSNPRWKTEVLTIRG")
-0.199
>>> observed_value("LNMVLDF")
"inactive"
>>> observed_value("NGGPRAYLDIYDLSGVSDRR")
0.487
>>> observed_value("FAYFDDLGVLMLYQLNRMSL")
-0.097
>>> observed_value("VRLCKYENSSWLSFRFQVQG")
0.56
>>> observed_value("VFYLSFIFLLWLSGKYLGHW")
1.25

Reference for the values: the supplement of paper PMC12042874
